Assayed System: DV2 sE(1–395) postfusion trimer (Dengue virus type 2, UniProt P12823)
Construct: The sE component (residues 1–395) of the ectodomain is in ribbon representation; purchased Hawai'i Biotech
Test Details: Fluorescence polarization binding of FITC-tagged stem peptides to postfusion sE trimer
Parameters: species or system dengue virus serotype 2
Ends that are not written are not given here.
Observable: IC50 (µM)
Give bare numbers, in µM.

Some solved cases for reference:
AILGDTAWDFGSLGGVFTSIGKALHQVF [DV2^413-440]; 0.25
AILGDTAWDFGSLGGVFTSIGKA [DV2^413-435]; 2

# input for lookup
Data request: Name the recorded IC50 for AWDFGSLGGVFTSIGKALHQVF [DV2^419-440] .
Data returned: 0.25
